target: P. falciparum apicoplast DNA polymerase (Pf-apPOL) (Plasmodium falciparum, UniProt Q8ILY1); assay: Fluorescence-based high-throughput DNA polymerase assay (molecular beacon), primary screen and dose-response; type: biochemical; settings: DRC-1; 180'; concentration 80;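 also: test concentration in µM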
Sequence (Q8ILY1 entry or part of it): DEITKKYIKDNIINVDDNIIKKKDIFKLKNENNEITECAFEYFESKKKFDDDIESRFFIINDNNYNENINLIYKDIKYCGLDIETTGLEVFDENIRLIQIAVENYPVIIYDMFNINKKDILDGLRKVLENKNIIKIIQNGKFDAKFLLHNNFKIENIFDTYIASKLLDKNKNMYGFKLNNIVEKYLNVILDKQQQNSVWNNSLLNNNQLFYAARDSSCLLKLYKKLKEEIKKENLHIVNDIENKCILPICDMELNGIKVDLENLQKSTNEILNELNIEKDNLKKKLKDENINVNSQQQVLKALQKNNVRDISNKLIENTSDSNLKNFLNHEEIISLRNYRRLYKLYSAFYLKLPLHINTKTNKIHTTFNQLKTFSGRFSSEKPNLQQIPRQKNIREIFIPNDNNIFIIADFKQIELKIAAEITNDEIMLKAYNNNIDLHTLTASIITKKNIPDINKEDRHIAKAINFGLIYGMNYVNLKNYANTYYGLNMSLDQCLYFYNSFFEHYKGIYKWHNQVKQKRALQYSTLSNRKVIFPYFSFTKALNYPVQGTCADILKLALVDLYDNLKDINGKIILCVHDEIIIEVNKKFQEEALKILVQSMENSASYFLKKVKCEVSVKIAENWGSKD
metric_name: % inhibition apPOL 180' (%)
// units = %; emit number, no label

- structure_string: "COCCN(CCOC)Cc1c(O)ccc2c1OC(=Cc1cc(Br)ccc1OC)C2=O"
  target: "P. falciparum apicoplast DNA polymerase (Pf-apPOL) (Plasmodium falciparum, UniProt Q8ILY1)"
  val: 101.453

Look up % inhibition apPOL 180': `Nc1c(S(=O)(=O)O)cc(Nc2ccccc2)c2c1C(=O)c1ccccc1C2=O`
99.8487

State the recorded % inhibition apPOL 180' for this entry: `O=C(Nc1cccc(C(=O)Nc2ccc(S(=O)(=O)[O-])c3cc(S(=O)(=O)[O-])cc(S(=O)(=O)[O-])c23)c1)Nc1cccc(C(=O)Nc2ccc(S(=O)(=O)[O-])c3cc(S(=O)(=O)[O-])cc(S(=O)(=O)[O-])c23)c1.[Na+].[Na+].[Na+].[Na+].[Na+].[Na+]`
98.5627
